Tested on: P. aeruginosa ATCC 9027
protocolText: Antibacterial activity, pre-exposure
Type: cell-based, Pseudomonas aeruginosa
testContext: P. aeruginosa ATCC 9027, pre-exposure, 100 µM, ± SD
propertyLabel: Average inhibition %, planktonic cells viability (%)
API: value field is a number in %; no unit string.

stdin: Which value of Average inhibition %, planktonic cells viability has been reported for CCCCCCCCc1ccc2ccc(CC(N)(CO)CO)nc2c1 [Compound 82] in the records?
stdout: 48.1

stdin: Consider the molecule shown here: CCCCCCCCCCc1ccc2nc(CC(N)(CO)CO)ccc2c1 [Compound 83] What is its recorded Average inhibition %, planktonic cells viability?
stdout: 14.8

stdin: Would you mind telling me what Average inhibition %, planktonic cells viability value was observed for CCCCCCCCCCOc1ccc(CCC(N)(CO)CO)cc1 [Compound 49] ?
stdout: 11

stdin: I have this molecule here, CCCCCCCCCCc1ccc2nc(CCC(N)(CO)CO)ccc2c1 [Compound 81] , and I need its recorded Average inhibition %, planktonic cells viability.
stdout: 20.3

stdin: # lookup: Average inhibition %, planktonic cells viability of CCCCCCCCc1ccc(CC(N)(CO)CO)cc1 [Compound 44]
stdout: 95.8

stdin: So what does the record say about Average inhibition %, planktonic cells viability for CCCCCCCCc1ccc2cc(CC(N)(CO)CO)ccc2c1 [Compound 79] ?
stdout: 1.9

stdin: // lookup Average inhibition %, planktonic cells viability for CCCCCCCCc1ccc(C(O)CC(N)(CO)CO)cc1 (stereo not shown) [Compound 54]
stdout: 99.6

stdin: Requested read-out: Average inhibition %, planktonic cells viability. Entry: CCCCCCCCc1ccc(CCC(N)(CO)CO)cc1 [fingolimod, Fingolimod]
stdout: 92.5

stdin: If you can, please state the reported Average inhibition %, planktonic cells viability value of CCCCCc1ccc(-c2ccc(CCC(N)(CO)CO)cc2)cc1 [Compound 15] .
stdout: 12

stdin: Requested read-out: Average inhibition %, planktonic cells viability. Entry: CCCCCCCCc1cccc(CCC(N)(CO)CO)c1 [Compound 43]
stdout: 99

----------
System: S. aureus ATCC 25923
protocolText: Antibacterial activity, post-exposure on preformed 18-h-old biofilms
Type: cell-based, Staphylococcus aureus
testContext: Staphylococcus aureus, ATCC25923, 50 µM, ± SD, read-out: Average inhibition %, planktonic cells turbidity
Provide the reported inhibition at 50 µM of each item.
Please respond with the number in % and leave the unit unwritten.

stdin: Reported inhibition at 50 µM, molecule "CCCCCCCCc1ccc2cc(CC(N)(CO)CO)ccc2c1" : ____
stdout: 12.4

stdin: For the molecule "CCCCCCCCc1cccc(CCC(N)(CO)CO)c1" , what inhibition at 50 µM is on record?
stdout: 33.5

stdin: Any idea what inhibition at 50 µM was measured for CCCCCCCCCCc1ccc(C(O)CC(N)(CO)CO)cc1 (stereo not drawn) ?
stdout: 9.8

stdin: Quick one: inhibition at 50 µM of "CCCCCCCCc1ccc2nc(CCC(N)(CO)CO)ccc2c1" ?
stdout: 26

stdin: Entry CCCCCCCCc1ccc(C(O)CC(N)(CO)CO)cc1 (stereo not drawn) : reported inhibition at 50 µM = ?
stdout: 17.4

stdin: Request the reported inhibition at 50 µM associated with "CCCCCCCCc1ccc(CCC(N)(CO)CO)cc1"
stdout: 13.8

----------
System: S. aureus ATCC 25923
protocolText: Antibacterial activity, pre-exposure (planktonic cells and biofilm formation)
Type: cell-based, Staphylococcus aureus
testContext: Staphylococcus aureus, ATCC25923; pre-exposure, 15 µM, ± SD; read-out: Average inhibition %, biofilms biomass
Classify by measured inhibition at 15 µM: 1 if it is equal to or exceeds 80%, -1 if it is smaller.

stdin: hey, is inhibition at 15 µM for this one >= 80%? CCCCCCCCCCc1ccc(C(O)CC(N)(CO)CO)cc1 (stereo not shown) [Compound 55]
stdout: 1

stdin: Answer whether inhibition at 15 µM of CCCCCCCCCCc1ccc(CCC(N)(CO)CO)nc1 [Compound 62] is greater than or equal to 80%.
stdout: 1

stdin: Please check the record CCCCCCCCc1ccc2cc(CC(N)(CO)CO)ccc2c1 [Compound 79] and state if its inhibition at 15 µM is at or above 80%.
stdout: 1

stdin: Textbook exercise: given the entry CCCCCCCCc1ccc2ccc(CC(N)(CO)CO)nc2c1 [Compound 82] , state whether its inhibition at 15 µM is greater than or equal to 80%.
stdout: 1

stdin: Can CCCCCCCCc1ccc(C(O)CC(N)(CO)CO)cc1 (stereo not shown) [Compound 54] be said to have inhibition at 15 µM at or above 80%?
stdout: -1

stdin: Does inhibition at 15 µM meet or surpass 80% for CCCCCCCCCCOc1ccc(CCC(N)(CO)CO)cc1 [Compound 49] ?
stdout: -1

stdin: Does the molecule CCCCCCCCOc1ccc(CCC(N)(CO)CO)cc1 [Compound 48] have recorded inhibition at 15 µM that is 80% or more?
stdout: -1

stdin: Has CCCCCc1ccc(-c2ccc(CCC(N)(CO)CO)cc2)cc1 [Compound 15] a recorded inhibition at 15 µM greater than or equal to 80%?
stdout: -1

stdin: Assess whether reported inhibition at 15 µM for CCCCCCCCc1ccc2nc(CCC(N)(CO)CO)ccc2c1 [Compound 80] sits at 80% or higher.
stdout: 1

stdin: Could you tell me if the measured inhibition at 15 µM of CCCCCCCCc1ccc(CC(N)(CO)CO)cc1 [Compound 44] reaches 80% or more?
stdout: -1

stdin: Item CCCCCCCCc1cccc(CCC(N)(CO)CO)c1 [Compound 43] with inhibition at 15 µM of 80% or above?
stdout: -1

stdin: Reported inhibition at 15 µM reaches at least 80% for CCCCCCCCc1ccc(CCC(N)(CO)CO)cc1 [fingolimod, Fingolimod] ?
stdout: 1

stdin: Is reported inhibition at 15 µM greater than or equal to 80% here: CCCCCCCCCCc1ccc2nc(CCC(N)(CO)CO)ccc2c1 [Compound 81]
stdout: 1

stdin: # bool: inhibition at 15 µM of CCCCCCCCCCc1ccc2nc(CC(N)(CO)CO)ccc2c1 [Compound 83] >= 80%
stdout: 1

stdin: Please check the record CCCCCCCCCCc1ccc(CCC(N)(CO)CO)cc1 [Compound 11] and state if its inhibition at 15 µM is at or above 80%.
stdout: 1

----------
Assign Average inhibition %, planktonic cells viability to each entry below.
Tested on: S. aureus P2
protocolText: Antibacterial activity, pre-exposure
Assay type: cell-based, Staphylococcus aureus
testContext: S. aureus P2, pre-exposure, 25 µM, ± SD

stdin: Field request: Average inhibition %, planktonic cells viability | item: "CCCCCCCCc1ccc2nc(CCC(N)(CO)CO)ccc2c1"
stdout: 99.5 ± 0.1%

stdin: # get_value(readout='Average inhibition %, planktonic cells viability', item= "CCCCCCCCc1ccc(CCC(N)(CO)CO)cc1" )
stdout: 99.7 ± 0%

stdin: Report Average inhibition %, planktonic cells viability for "CCCCCCCCc1ccc2cc(CC(N)(CO)CO)ccc2c1" please.
stdout: 99.6 ± 0.1%

stdin: Requested read-out: Average inhibition %, planktonic cells viability. Entry: CCCCCCCCCCc1ccc(C(O)CC(N)(CO)CO)cc1 (stereo not drawn)
stdout: 99.5 ± 0.1%

stdin: Consider the compound shown here: "CCCCCCCCCCc1ccc2nc(CCC(N)(CO)CO)ccc2c1" What is its recorded Average inhibition %, planktonic cells viability?
stdout: 99.6 ± 0.2%

stdin: For "CCCCCCCCc1ccc2ccc(CC(N)(CO)CO)nc2c1" , what is its reported Average inhibition %, planktonic cells viability?
stdout: 99.5 ± 0%

----------
System: S. aureus P2
protocolText: Antibacterial activity, pre-exposure
Assay type: cell-based, Staphylococcus aureus
testContext: S. aureus P2, pre-exposure, 10 µM, ± SD
Give measured Average inhibition %, biofilms viability for each item. Keep answers brief.
Give just the number in %; leave the unit off.

stdin: Item under review: CCCCCCCCc1ccc2nc(CCC(N)(CO)CO)ccc2c1 [Compound 80] . Reported Average inhibition %, biofilms viability?
stdout: 99.5

stdin: Quick check: Average inhibition %, biofilms viability of CCCCCCCCc1ccc2ccc(CC(N)(CO)CO)nc2c1 [Compound 82] ?
stdout: 99.5

stdin: Quick check: Average inhibition %, biofilms viability of CCCCCCCCc1ccc(CCC(N)(CO)CO)cc1 [fingolimod, Fingolimod] ?
stdout: 55.4

stdin: // returns reported Average inhibition %, biofilms viability for input CCCCCCCCCCc1ccc2nc(CCC(N)(CO)CO)ccc2c1 [Compound 81]
stdout: 99.6

stdin: // query Average inhibition %, biofilms viability value for entry CCCCCCCCc1ccc2cc(CC(N)(CO)CO)ccc2c1 [Compound 79]
stdout: 99.4

stdin: // query Average inhibition %, biofilms viability value for entry CCCCCCCCCCc1ccc(C(O)CC(N)(CO)CO)cc1 (stereo not drawn) [Compound 55]
stdout: 99.4

----------
Tested on: P. aeruginosa ATCC 9027
protocolText: Antibacterial activity, pre-exposure
Assay type: cell-based, Pseudomonas aeruginosa
testContext: P. aeruginosa ATCC 9027, pre-exposure, 100 µM, ± SD
Protocol: The antimicrobial activity was assessed in a similar way for the initial screening and the dose–response evaluation against different bacterial strains. […] The resazurin staining was performed according to the protocol previously optimized with a few modifications.[46] Briefly, the planktonic solution was first transferred into a new 96-well plate and the OD of the planktonic solution was measured using a Varioskan LUX Multimode microplate reader (Thermo Scientific, Vantaa, Finland). […]
propertyLabel: Average inhibition %, planktonic cells viability (%)
I only need the number, in %, no unit after it.

stdin: Need Average inhibition %, planktonic cells viability of "CCCCCCCCc1ccc2nc(CCC(N)(CO)CO)ccc2c1" , thanks.
stdout: 46.1

stdin: // Average inhibition %, planktonic cells viability lookup, key: CCCCCCCCCCc1ccc(C(O)CC(N)(CO)CO)cc1 (stereo not drawn)
stdout: 30.3

stdin: Which Average inhibition %, planktonic cells viability reading was recorded for the molecule "CCCCCCCCCCc1ccc(CCC(N)(CO)CO)nc1" ?
stdout: 39.6

stdin: Query (molecule): "CCCCCCCCOc1ccc(CCC(N)(CO)CO)cc1" ; field requested: Average inhibition %, planktonic cells viability
stdout: 76.1

stdin: Entry under review: "CCCCCCCCCCc1ccc(CCC(N)(CO)CO)cc1" . Reported Average inhibition %, planktonic cells viability?
stdout: 6.4

stdin: May I ask what Average inhibition %, planktonic cells viability has been recorded for "CCCCCC/C=C/c1ccc(CCC(N)(CO)CO)cc1" ?
stdout: 15.1
